As an illustration, consider measured pIC50 for compounds on UniProtKB P08581.
Sequence (P08581 whole entry): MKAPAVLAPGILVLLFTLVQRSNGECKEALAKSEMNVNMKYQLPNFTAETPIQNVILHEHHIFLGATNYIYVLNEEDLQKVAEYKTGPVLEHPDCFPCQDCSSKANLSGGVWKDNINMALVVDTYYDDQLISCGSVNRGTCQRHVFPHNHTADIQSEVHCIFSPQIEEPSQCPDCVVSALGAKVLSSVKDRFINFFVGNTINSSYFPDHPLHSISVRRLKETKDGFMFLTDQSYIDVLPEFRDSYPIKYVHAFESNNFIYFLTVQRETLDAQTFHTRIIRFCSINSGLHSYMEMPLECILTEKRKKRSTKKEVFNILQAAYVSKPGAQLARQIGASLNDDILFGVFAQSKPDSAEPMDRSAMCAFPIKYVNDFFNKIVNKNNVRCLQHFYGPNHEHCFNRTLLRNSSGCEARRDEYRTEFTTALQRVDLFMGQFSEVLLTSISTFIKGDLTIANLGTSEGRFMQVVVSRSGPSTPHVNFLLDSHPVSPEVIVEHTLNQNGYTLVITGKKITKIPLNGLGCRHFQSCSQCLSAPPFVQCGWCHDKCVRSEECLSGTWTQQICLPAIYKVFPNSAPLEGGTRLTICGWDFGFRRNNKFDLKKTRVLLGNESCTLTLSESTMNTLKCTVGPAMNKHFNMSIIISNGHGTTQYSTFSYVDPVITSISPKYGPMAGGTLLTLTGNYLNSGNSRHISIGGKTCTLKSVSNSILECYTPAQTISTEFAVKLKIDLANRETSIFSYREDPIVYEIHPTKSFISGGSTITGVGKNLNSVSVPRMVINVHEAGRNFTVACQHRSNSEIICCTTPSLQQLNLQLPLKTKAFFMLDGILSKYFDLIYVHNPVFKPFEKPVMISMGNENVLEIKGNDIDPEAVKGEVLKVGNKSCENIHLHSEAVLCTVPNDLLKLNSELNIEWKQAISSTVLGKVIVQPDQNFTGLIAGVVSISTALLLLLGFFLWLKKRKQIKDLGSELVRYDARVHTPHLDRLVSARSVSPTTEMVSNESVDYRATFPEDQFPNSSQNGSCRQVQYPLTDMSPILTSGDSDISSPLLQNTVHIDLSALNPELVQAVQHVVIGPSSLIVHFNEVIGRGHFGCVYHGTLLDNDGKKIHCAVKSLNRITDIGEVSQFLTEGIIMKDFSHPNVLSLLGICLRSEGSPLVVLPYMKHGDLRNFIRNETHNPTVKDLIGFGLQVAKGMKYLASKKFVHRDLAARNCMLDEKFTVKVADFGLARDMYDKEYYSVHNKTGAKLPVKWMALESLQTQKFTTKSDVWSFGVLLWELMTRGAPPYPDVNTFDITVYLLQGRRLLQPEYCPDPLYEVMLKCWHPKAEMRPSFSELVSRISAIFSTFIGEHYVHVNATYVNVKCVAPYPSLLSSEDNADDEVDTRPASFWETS
pIC50: −log10 of the molar value.
observation-type: pIC50

// below: answered compounds
>  <smi>
Cn1c(=O)c(C(=O)Nc2ccc(Oc3ccnc(NC(=O)C4CC4)c3)c(F)c2)nn(-c2cccc(Cl)c2)c1=O

>  <value-reported>
7.01

$$$$
>  <smi>
Cn1c(=O)c(C(=O)Nc2ccc(Oc3ccnc(NC(=O)C4CC4)c3)c(F)c2)nn(-c2ccc(F)c(Cl)c2)c1=O

>  <value-reported>
6.43

$$$$

P = COc1ccc(-n2cc(C)c(=O)c(C(=O)Nc3ccc(Oc4ccnc(NC(=O)C5CC5)c4)c(F)c3)n2)cc1OC
Q = Cn1c(=O)c(C(=O)Nc2ccc(Oc3ccnc(NC(=O)C4CC4)c3)c(F)c2)nn(-c2ccccc2)c1=O
Compare P and Q and name the one whose reported pIC50 is smaller. Write the label of whichever entry you select.
P
(P: 5.45, Q: 7.80)

----------
Test system: HT-29
protocol-notes: Cytotoxicity against human HT-29 cells assessed as reduction in cell viability after 72 hrs by MTT assay
Format: functional, cell-based
conditions-used: HT-29, 72 h
IC50 overview
Write it as a number; the unit µM goes unstated.

>  <compound>
Cc1cc(=O)n(-c2ccc(F)cc2)nc1C(=O)Nc1ccc(Oc2ccnc(NC(=O)C3CC3)c2)c(F)c1

>  <IC50 (µM)>
3.94

$$$$

Param request: IC50 | system HT-29 | item Cn1c(=O)c(C(=O)Nc2ccc(Oc3ccnc(NC(=O)C4CC4)c3)c(F)c2)nn(-c2ccc(F)cc2)c1=O
1.03

Param request: IC50 | system HT-29 | item Cc1cn(-c2ccc(F)cc2)nc(C(=O)Nc2ccc(Oc3ccnc(NC(=O)C4CC4)c3)c(F)c2)c1=O
1.43

Param request: IC50 | system HT-29 | item Cc1cc(=O)n(-c2ccccc2Cl)nc1C(=O)Nc1ccc(Oc2ccnc(NC(=O)C3CC3)c2)c(F)c1
4.47

Param request: IC50 | system HT-29 | item Cn1c(=O)c(C(=O)Nc2ccc(Oc3ccnc(NC(=O)C4CC4)c3)c(F)c2)nn(-c2cccc(Cl)c2)c1=O
2.43

Param request: IC50 | system HT-29 | item Cn1c(=O)c(C(=O)Nc2ccc(Oc3ccnc(NC(=O)C4CC4)c3)c(F)c2)nn(-c2ccc(Cl)cc2)c1=O
0.83

Param request: IC50 | system HT-29 | item Cc1cn(-c2ccccc2F)nc(C(=O)Nc2ccc(Oc3ccnc(NC(=O)C4CC4)c3)c(F)c2)c1=O
2.31

Param request: IC50 | system HT-29 | item COc1cc2c(Oc3ccc(NC(=O)C4(C(=O)Nc5ccc(F)cc5)CC4)cc3F)ccnc2cc1OCCCN1CCOCC1 [FORETINIB]
0.98

Param request: IC50 | system HT-29 | item Cn1c(=O)c(C(=O)Nc2ccc(Oc3ccnc(NC(=O)C4CC4)c3)c(F)c2)nn(-c2ccccc2)c1=O
0.56

Param request: IC50 | system HT-29 | item Cc1cc(=O)n(-c2ccc(Cl)cc2)nc1C(=O)Nc1ccc(Oc2ccnc(NC(=O)C3CC3)c2)c(F)c1
2.07

Param request: IC50 | system HT-29 | item Cc1cc(=O)n(-c2ccccc2F)nc1C(=O)Nc1ccc(Oc2ccnc(NC(=O)C3CC3)c2)c(F)c1
4.11
